Target: porcine tubulin (Sus scrofa, UniProt P02550+P02554)
Construct: purchased Cytoskeleton Inc., Denver, CO BK011P
Sequence (P02554 whole entry): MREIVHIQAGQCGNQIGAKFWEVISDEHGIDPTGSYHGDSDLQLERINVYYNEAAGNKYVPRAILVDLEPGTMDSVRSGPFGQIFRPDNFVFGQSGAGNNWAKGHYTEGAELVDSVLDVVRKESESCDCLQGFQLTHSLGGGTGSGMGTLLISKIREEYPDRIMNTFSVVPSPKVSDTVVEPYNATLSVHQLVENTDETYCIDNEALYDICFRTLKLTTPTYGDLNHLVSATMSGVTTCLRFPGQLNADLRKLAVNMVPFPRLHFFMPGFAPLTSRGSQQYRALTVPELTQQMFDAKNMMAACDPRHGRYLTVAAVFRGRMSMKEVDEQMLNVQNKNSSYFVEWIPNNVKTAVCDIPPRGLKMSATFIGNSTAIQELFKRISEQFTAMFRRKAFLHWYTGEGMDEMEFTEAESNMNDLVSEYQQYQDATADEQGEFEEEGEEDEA
Sequence (P02550 whole entry): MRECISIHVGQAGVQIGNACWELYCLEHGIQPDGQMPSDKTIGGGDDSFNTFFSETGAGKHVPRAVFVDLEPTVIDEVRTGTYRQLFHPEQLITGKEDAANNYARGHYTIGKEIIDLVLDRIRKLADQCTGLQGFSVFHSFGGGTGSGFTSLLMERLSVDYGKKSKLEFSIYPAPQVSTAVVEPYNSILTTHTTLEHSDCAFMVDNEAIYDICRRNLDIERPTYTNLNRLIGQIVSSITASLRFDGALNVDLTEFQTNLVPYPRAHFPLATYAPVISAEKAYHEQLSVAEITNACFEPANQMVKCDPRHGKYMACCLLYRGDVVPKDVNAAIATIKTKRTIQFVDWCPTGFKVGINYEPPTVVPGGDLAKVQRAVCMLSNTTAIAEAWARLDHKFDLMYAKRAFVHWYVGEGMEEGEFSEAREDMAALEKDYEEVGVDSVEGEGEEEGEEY
Assay: In vitro tubulin polymerization assay
Format: biochemical
Settings: 3 µM compound, 20 µM porcine tubulin, 37 °C, 60 min
quantity: effect on tubulin polymerization

COc1ccccc1C(=O)/C=C/c1cc2cccc(OC)c2[nH]c1=O ... reduced steady-state
COC(=O)Nc1nc2ccc(C(=O)c3cccs3)cc2[nH]1 [Noco, Nocodazole, reference compound] ... reduced steady-state

---

Quick record: GI50, MZ-Mel-3.
Numbers only here, please. The scale is nM.

Exam item: Hi! What's the reported GI50 for "COc1ccc2cc(/C=C/C(=O)c3ccccc3OC)c(=O)[nH]c2c1" on MZ-Mel-3?
Marked response: 6830

Exam item: Then "COc1ccc2[nH]c(=O)c(/C=C/C(=O)c3ccccc3OC)cc2c1" ?
Marked response: 98

Exam item: Then "CCOc1ccccc1C(=O)/C=C/c1cc2cc(OC)ccc2[nH]c1=O" ?
Marked response: 11

Exam item: Then "COc1ccccc1C(=O)/C=C/c1cc2cc(C)ccc2[nH]c1=O" ?
Marked response: 239

Exam item: Then "COc1ccccc1C(=O)/C=C/c1cc2ccccc2[nH]c1=O" ?
Marked response: 227

Exam item: Then COC(=O)Nc1nc2ccc(C(=O)c3cccs3)cc2[nH]1 [Noco, Nocodazole, reference compound] ?
Marked response: 23

Exam item: Then CC(=O)O[C@H]1C(=O)[C@@]2(C)[C@H]([C@H](OC(=O)c3ccccc3)[C@]3(O)C[C@H](OC(=O)[C@H](O)[C@@H](NC(=O)c4ccccc4)c4ccccc4)C(C)=C1C3(C)C)[C@]1(OC(C)=O)CO[C@@H]1C[C@@H]2O [Tax, paclitaxel, reference compound] ?
Marked response: 58

Exam item: Then "CCOc1ccccc1C(=O)/C=C/c1cc2ccccc2[nH]c1=O" ?
Marked response: 6

Exam item: Then "COc1ccccc1C(=O)/C=C/c1cc2cccc(OC)c2[nH]c1=O" ?
Marked response: 6

// provenance: paper PMC8566451
